test system: MDA-MB-435 melanoma; assay: NCI-60 one-dose screen, 48 h; settings: 10 µM unless noted
This is part of a sample that, as a whole, favours compounds with a hit. Of some 83,000 tested, about 20% had one in any assay. Calls of active or inactive are those of the source. Rule for the calls: active = growth percent below 10; inactive = the rest.
Outcome codes: 1.0 for active, 0.0 for inactive

# molecule, labelValue
rows = [
    ("COCCOCCOCc1n(Cc2ccc3ccccc3n2)c2ccccc2[n+]1Cc1ccc2ccccc2n1", 0.0),
    ("COC(=O)/C=C/c1cc(OC)c2c(c1)[C@@H](C(=O)OC)[C@H](c1ccc(OC)c(OC)c1)O2", 1.0),
    ("OCCNc1nc(NCCO)nc(Nc2ccc(C3=NN(c4cc(Cl)cc(Cl)c4)C(c4ccc(C(F)(F)F)cc4)C3)cc2)n1 (stereo not drawn)", 0.0),
]

---

growth reference
tested on: M14 melanoma; experiment: NCI-60 one-dose screen, 48 h (100 = growth as untreated, 0 = no growth, -100 = all killed); settings: 10 µM unless noted
This is part of a sample that, as a whole, favours compounds with a hit. Of some 83,000 tested, about 20% had one in any assay.

# compound, unitOfMeasure, growth
data = [
    ("CC(C)(C)c1ccc(O)c(Cc2cc(C(C)(C)C)ccc2O)c1", "%", 92.3),
    ("[2H]c1cc2c(c([2H])c1F)/C(=C/c1[nH]c(C)c(C(=O)NCCN(CC)CC)c1C)C(=O)N2", "%", 20.6),
    ("CNCc1cccc2c1OCCOCCOCCN(CCN1CCOCC1)S(=O)(=O)c1ccc(cc1)-c1cnc(N)c(n1)C(=O)N2", "%", 26.4),
    ("C=C1C(=O)O[C@H]2[C@H]1CC/C(COC(=O)NCC(=O)Nc1ccc(OC)c(C(N)=O)c1O)=C\\CC[C@@]1(C)O[C@@H]21", "%", 62.9),
    ("C=C(C)[C@@H]1CC[C@]2(C(=O)O)CC[C@]3(C)[C@H](CC[C@@H]4[C@@]5(C)C[C@@H](CC#Cc6ccccc6)C(=O)C(C)(C)[C@@H]5CC[C@]43C)[C@@H]12", "%", 36.5),
    ("C[C@H]1[C@H](C)CC[C@]2(C(=O)OCCCC[P+](c3ccccc3)(c3ccccc3)c3ccccc3)CC[C@]3(C)C(=CC[C@@H]4[C@@]5(C)CC[C@H](OC(=O)C(Cl)Cl)C(C)(C)[C@@H]5CC[C@]43C)[C@H]12", "%", -82.7),
    ("Cc1cccc(C)c1NCc1nnc(-c2ccco2)o1", "%", 99),
    ("Nc1cc(N)nc(SCC(=O)O)n1", "%", 102),
    ("COc1ccc(Cc2nc(C#N)c(N3CCN(c4ccc(F)cc4)CC3)o2)cc1", "%", 90),
    ("Cn1nc(C(F)(F)F)c(-c2cc(C(F)(F)F)cc(C(F)(F)F)c2)c1-c1ccc(OCc2ccc(Cl)cc2)cc1O", "%", 6.3),
    ("Nc1c(C(=O)Nc2cccc3ccccc23)sc2nc3c(cc12)COCC3", "%", 35.7),
    ("CC(=O)Nc1nc2c(c(N)c1C#N)C(c1cccc(Cl)c1)C1=C(CCCC1=O)N2c1sc2c(c1C#N)CCCC2 (stereo unspecified)", "%", 52.2),
    ("O=C(O)c1cn(C2CC2)c2cc(N3CCN(C(=O)CSc4nnc(-c5ccc(Cl)cc5)n4-c4ccccc4)CC3)c(F)cc2c1=O", "%", 109),
    ("COc1c(O)cc2oc3cc(O[C@@H]4OC(C)[C@@H](O)[C@H](O)C4O)c(CC=C(C)C)c(O)c3c(=O)c2c1CC=C(C)C (stereo partly specified)", "%", 99.8),
    ("COc1cc2c(cc1OCCCOc1cc3c(cc1OC)C(=O)N1CC(F)(F)C[C@H]1C=N3)N=C[C@@H]1CC(F)(F)CN1C2=O", "%", -0.895),
    ("CC(=O)ON1CCCC(P(=O)(OCOC(=O)C(C)(C)C)OCOC(=O)C(C)(C)C)C1=O (stereo unspecified)", "%", 12.9),
]

---

system: ACHN renal; test: NCI-60 one-dose screen, 48 h; conditions: 10 µM unless noted
The panel holds about 83,000 compounds, 20% with a hit somewhere; the sample as a whole holds those more often. Activity calls are given as the source filed them. How the source made its calls: active means growth percent below 10; inactive means the rest.
Outcome codes: 1 (active), -1 (inactive)

# compound, assaySystem, labelValue
records = [
    ("CCOCc1nc2ccccc2c(=O)[nH]1", "ACHN renal", -1),
    ("CCCCc1ccc(N=Nc2ccc(OCC[N+](C)(C)C)cc2)cc1", "ACHN renal", -1),
    ("CSc1nc(-c2ccc(F)cc2)c(C#N)c(N2CCOCC2)n1", "ACHN renal", -1),
    ("CC(=O)c1ccc(NC(=O)CSc2nnc(-c3cc(-c4ccc(C)cc4)nc4ccccc34)o2)cc1", "ACHN renal", -1),
    ("CCCCCCCCCCCCCC1=NCC[N+]1(CCO)Cc1ccccc1 (stereo unspecified)", "ACHN renal", 1),
    ("C#C[C@@]1(O)[C@@H](CO)O[C@@H](n2cc(-c3ccco3)c3c(N)ncnc32)[C@@H]1O", "ACHN renal", -1),
]

---

system: OVCAR-8 ovarian; test: NCI-60 one-dose screen, 48 h; conditions: 10 µM unless noted
About 83,000 compounds went through this panel and 20% of them were active in at least one assay; those are over-represented in the sample as a whole. Active and inactive are the calls of the source. How the source made its calls: active means growth percent below 10; inactive means the rest.
Outcome codes: active, inactive

# compound, labelValue
measured = [
    ("Nc1ccccc1NS(=O)(=O)c1ccc(Cl)cc1", "inactive"),
    ("COc1ccc(C2N(c3cc(OC)c(OC)c(OC)c3)C(=O)C2(F)F)cc1F (stereo not given)", "inactive"),
    ("CCOC(=O)c1c(C)nc2c(c1N)/C(=C/c1cccs1)C(=O)N2c1ccc(OC)cc1", "inactive"),
    ("COc1ccc(/C=C/C(=O)Nc2ncnc3nc[nH]c23)cc1", "inactive"),
    ("O=[N+]([O-])c1ccc(N=Nc2c(O)c(N=Nc3cc([N+](=O)[O-])cc([N+](=O)[O-])c3O)cc(N=Nc3cc(S(=O)(=O)O)cc4cc(S(=O)(=O)O)cc(O)c34)c2O)cc1", "inactive"),
    ("COc1cc2c(Nc3ccc(NC(=O)Nc4ccc(Cl)c(C(F)(F)F)c4)c(Cl)c3)ncnc2cc1OCCCN1CCN(C)CC1", "inactive"),
    ("COc1ccc2oc(=O)cc(-c3nc4ccc(N)cc4[nH]3)c2c1", "inactive"),
    ("NC(=N\\N=C\\c1ccccc1O)/C(N)=N/N=C/c1ccccc1O", "inactive"),
    ("N#Cc1ccc(N2Cc3cc(Cl)ccc3OC3=C2C(=O)N(Cc2ccccc2)C3=O)cc1", "active"),
    ("Cc1cc2ccccc2c[n+]1CC(=O)c1ccc(-c2ccccc2)cc1", "inactive"),
    ("Cc1cc(Nc2nc(SCc3ccc(C(=O)Nc4ccc(F)cc4N)cc3)nn3cccc23)n[nH]1", "inactive"),
    ("CC(C)C[C@H](C(=O)O)N(C)C(=O)[C@@H]1CCCN1C(=O)[C@H](C)OC(=O)[C@H](CCC(N)=O)NC(=O)[C@@H]1CCC(=O)N1", "inactive"),
    ("COc1ccc2c(c1)Oc1nc(N)c(C#N)c(N)c1C2Sc1ccc(O)cc1 (stereo not given)", "inactive"),
    ("COc1cc(/C=C/CO)cc(OC)c1O[C@@H]1O[C@H](CO)[C@@H](O)[C@H](O)[C@H]1O", "inactive"),
    ("CCCNc1nc(C)[nH]c(=O)c1S", "inactive"),
    ("CCC1=C[C@H]2CN(CCc3c([nH]c4ccccc34)[C@@](C(=O)OC)(c3cc4c(cc3OC)N(C)[C@H]3[C@@](O)(C(=O)OC)[C@H](OC(C)=O)[C@]5(CC)[C@@H]6C[C@@H]6CN6CC[C@]43[C@@H]65)C2)C1", "active"),
    ("Cc1nnc(/N=C2\\NC(=O)/C(=C/c3ccsc3)S2)s1", "inactive"),
    ("CN1CCN(C(=O)[C@@]2(C)CC[C@]3(C)CC[C@]4(C)C(=CC[C@@H]5[C@@]6(C)CC[C@H](OC(=O)c7cccnc7)C(C)(C)[C@@H]6CC[C@]54C)[C@@H]3C2)CC1", "inactive"),
    ("Nc1c(C(=O)Nc2ccccn2)sc2nc3c(cc12)CCCCC3", "inactive"),
    ("Cn1c2c(c3ccc(-c4ccn[nH]4)cc3c1=O)C(=O)c1ccccc1-2", "inactive"),
]

---

test system: MDA-MB-435 melanoma; assay: NCI-60 one-dose screen, 48 h (100 = growth as untreated, 0 = no growth, -100 = all killed); details: 10 µM unless noted
This is part of a sample that, as a whole, favours compounds with a hit. Of some 83,000 tested, about 20% had one in any assay.
growth reference

# compound, unitOfMeasure, growth
measured = [
    ("O=C1CC23OC4ON=C(Br)C4C2C(O)c2ccccc2N13 (centres undefined)", "%", 111),
    ("CC[C@]12C=CCN3CC[C@@]4(c5ccc(OC)cc5N(C)[C@H]4[C@@](O)(C(=O)OC)[C@@H]1OC(=O)CCC(=O)O[C@H]1CC[C@H]4[C@@H]5CC[C@H]6CC(=O)CC[C@]6(C)[C@H]5CC[C@]14C)[C@@H]32", "%", 29.4),
    ("CCOc1ccc(C2N(c3cc(OC)c(OC)c(OC)c3)C(=O)C2(F)F)cc1 (centres undefined)", "%", 16.8),
    ("Nc1n[nH]c2cccc(C#Cc3cccc(NC(=O)c4cc(N5CCOCC5)cc(C(F)(F)F)c4)c3)c12", "%", 45.8),
]

Values compiled from PubChem BioAssay (NCI).
